ASSAY REMARKS: Phototoxicity assay in MET1 cells (irradiation 2.5 J/cm², resazurin)
Type: cell-based, human
RUN CONDITIONS: human, MET1 squamous cell carcinoma cells; MET1 cells, dark, 1.25-40 µM; read-out: cell viability under dark conditions
ENDPOINT: viability at 24 h

The recorded viability at 24 h for entry Cc1ccc2ccc3ccc(C)nc3c2n1 [Neocuproine, neocuproine] equals < 70%

* * *

ASSAY REMARKS: Phototoxicity assay in MET1 cells (irradiation 2.5 J/cm², resazurin)
Type: cell-based, human
RUN CONDITIONS: human, MET1 squamous cell carcinoma cells; MET1 cells, 457 nm, all investigated concentrations (1.25-40 µM); read-out: cell viability under 457 nm light
ENDPOINT: viability at 24 h

The recorded viability at 24 h for entry CN(C)c1ccc2cc3ccc(N(C)C)cc3nc2c1 [Acridine orange, acridine orange] equals < 10%

* * *

Test system: MET1 cells
ASSAY REMARKS: Phototoxicity assay in MET1 cells (irradiation 2.5 J/cm², resazurin)
Format: cell-based, human
RUN CONDITIONS: Homo sapiens, MET-1, light or radiation study, 24 h, read-out: IC50 640 nm
ENDPOINT: pIC50
One number for each entry, as −log10 of the molar value.

The recorded pIC50 for entry c1ccc(-c2ccccn2)nc1 [2,2′-bipyridyl] equals 3.69

* * *

Tested on: MET1 cells
ASSAY REMARKS: Phototoxicity assay in MET1 cells (irradiation 2.5 J/cm², resazurin)
Assay type: cell-based, human
RUN CONDITIONS: Homo sapiens, MET-1, light or radiation study; MET1 cells, treated 24 h, 457 nm light, 2.5 J/cm²; read-out: IC50 457 nm
Consider the following compounds; for each one, report its pIC50.
Answers are plain numbers, as −log10 of the molar value.

Consider the following illustrative entries.
1. c1cnc2c(c1)ccc1cccnc12; 5.31
2. CN(C)c1ccc2nc3ccc(=[N+](C)C)cc-3sc2c1; 5.21
3. CN(C)c1ccc(C(=C2C=CC(=[N+](C)C)C=C2)c2ccc(N(C)C)cc2)cc1; 5.57

Quick request: pIC50 for each listed item, please.
1. CN(C)c1ccc2cc3ccc(N(C)C)cc3nc2c1
2. COc1cc(/C=C/C(=O)CC(=O)/C=C/c2ccc(O)c(OC)c2)ccc1O

Ans.
[6.40, 4.97]

The recorded pIC50 for entry O=c1c(O)c(-c2ccc(O)c(O)c2)oc2cc(O)cc(O)c12 equals 3.54

* * *

Test system: HaCaT cells
ASSAY REMARKS: Cytotoxicity (resazurin cell viability) in HaCaT cells
Type: cell-based, human
RUN CONDITIONS: Homo sapiens; HaCaT cells, 24 h exposure, 1.25-320 µM; read-out: IC50 HaCaT Cells 24 h
pIC50: −log10 of the molar value.
Quick rule for you: pIC50 at 5 or higher means fulfilled, lower means not fulfilled.

1. O=c1c(O)c(-c2ccc(O)c(O)c2)oc2cc(O)cc(O)c12 [Quercetin, quercetin]; not fulfilled

Qu. Is reported pIC50 greater than or equal to 5 here: Cc1ccc2ccc3ccc(C)nc3c2n1 [Neocuproine, neocuproine]
Ans. not fulfilled

Qu. Is reported pIC50 greater than or equal to 5 here: CN(C)c1ccc(C(=C2C=CC(=[N+](C)C)C=C2)c2ccc(N(C)C)cc2)cc1 [Gentian violet, gentian violet]
Ans. fulfilled

Qu. Is reported pIC50 greater than or equal to 5 here: c1cnc2c(c1)ccc1cccnc12 [1,10-phenanthroline]
Ans. not fulfilled

* * *

Test system: HaCaT cells
ASSAY REMARKS: Cytotoxicity (resazurin cell viability) in HaCaT cells
Type: cell-based, human
RUN CONDITIONS: Homo sapiens; HaCaT cells, 24 h exposure, 1.25-320 µM; read-out: IC50 HaCaT Cells 24 h
ENDPOINT: pIC50
One number for each entry, as −log10 of the molar value.

1) CN(C)c1ccc2cc3ccc(N(C)C)cc3nc2c1; 4.98
2) COc1cc(/C=C/C(=O)CC(=O)/C=C/c2ccc(O)c(OC)c2)ccc1O; 5.05

The recorded pIC50 for entry CN(C)c1ccc2nc3ccc(=[N+](C)C)cc-3sc2c1 equals 4.94
